# Tested on: CCRF-CEM
# assayExplanation: Antiproliferative activity against human CCRF-CEM cells assessed as reduction in cell viability
# Assay type: functional, cell-based
property: IC50 (nM)

- Cl.Cn1ncc(Cl)c1-c1csc(C(=O)N[C@@H]2CNCC[C@H]2c2cccc(F)c2)c1: 8

----------
# assayExplanation: Tmax in Sprague-Dawley rat at 10 mg/kg, po measured up 48 hrs by LC-MS/MS analysis
# Type: ADME, organism-based
# condition: in vivo
property: Tmax (h)

• Cl.Cn1ncc(Cl)c1-c1csc(C(=O)N[C@@H]2CNCC[C@H]2c2cccc(F)c2)c1 = 2.75

----------
# assayExplanation: Cmax in Sprague-Dawley rat at 2 mg/kg, iv measured up 48 hrs by LC-MS/MS analysis
# Assay type: ADME, organism-based
# Set-up: dose 2 mg/kg, route intravenous
# condition: in vivo
property: Cmax

- Cl.Cn1ncc(Cl)c1-c1csc(C(=O)N[C@@H]2CNCC[C@H]2c2cccc(F)c2)c1: 1440 ng/mL
